Collected set of pKi measured with UniProt:P08235 across studies.
# pKi: negative log10 of molar concentration; output just the value

Example cases with answers are listed next.
compound	pKi
CC(C)NC(=O)O[C@@H]1[C@@H](C)c2c(cc(F)c(-c3cccc4c(Cl)c[nH]c34)c2F)NC1(C)C (racemic)	6.42
COc1c(O)ccc2c1-c1ccc3c(c1/C(=C/c1cccc(O)c1)O2)C(C)=CC(C)(C)N3	6.54
COc1cc(F)ccc1-c1c(CN(C)Cc2ccccc2)[nH]c2c(NS(C)(=O)=O)cc(C(C)C)cc12	5.80
COc1cc(NS(C)(=O)=O)c2[nH]c(C)c(-c3cc(F)ccc3OC)c2c1	7.42
CC(C)n1cc(-c2ccc(C#N)cc2)c2ccc(NS(C)(=O)=O)cc21	5.83
Cc1c[nH]c2c(-c3c(F)cc4c(c3F)/C(=N/OC(C)C)CC(C)(C)N4)cccc12	5.55
C[C@H]1c2c(cc(F)c(-c3cccc4c(Cl)c[nH]c34)c2F)NC(C)(C)[C@@H]1OC(=O)NC1CCCCC1 (racemic)	5.65
COc1c(O)ccc2c1-c1ccc3c(c1/C(=C/c1sccc1C(C)O)O2)C(C)=CC(C)(C)N3 (racemic)	6.39
CNC(=O)C[C@H]1CCc2cc(F)ccc2N1C(=O)c1ccc2c(c1)NC(=O)CO2	6.50
COc1ccc(Cl)cc1-c1c[nH]c2c(NS(C)(=O)=O)cccc12	5.35

Please give the measured pKi for this compound: `NC(=O)C[C@H]1COc2cc(F)c(C3CC3)cc2N1C(=O)c1ccc2c(c1)NC(=O)CO2`
8.50

Please give the measured pKi for this compound: `C/C(=C1/c2ccccc2COc2ccccc21)c1cccc(NS(C)(=O)=O)c1`
9.47

Please give the measured pKi for this compound: `COc1cc(NS(C)(=O)=O)c2[nH]c(C)c(-c3ccccc3)c2c1`
5.41

----------
Collected set of Ki measured with Mineralocorticoid receptor (Homo sapiens) across studies.
Sequence (P08235 whole entry): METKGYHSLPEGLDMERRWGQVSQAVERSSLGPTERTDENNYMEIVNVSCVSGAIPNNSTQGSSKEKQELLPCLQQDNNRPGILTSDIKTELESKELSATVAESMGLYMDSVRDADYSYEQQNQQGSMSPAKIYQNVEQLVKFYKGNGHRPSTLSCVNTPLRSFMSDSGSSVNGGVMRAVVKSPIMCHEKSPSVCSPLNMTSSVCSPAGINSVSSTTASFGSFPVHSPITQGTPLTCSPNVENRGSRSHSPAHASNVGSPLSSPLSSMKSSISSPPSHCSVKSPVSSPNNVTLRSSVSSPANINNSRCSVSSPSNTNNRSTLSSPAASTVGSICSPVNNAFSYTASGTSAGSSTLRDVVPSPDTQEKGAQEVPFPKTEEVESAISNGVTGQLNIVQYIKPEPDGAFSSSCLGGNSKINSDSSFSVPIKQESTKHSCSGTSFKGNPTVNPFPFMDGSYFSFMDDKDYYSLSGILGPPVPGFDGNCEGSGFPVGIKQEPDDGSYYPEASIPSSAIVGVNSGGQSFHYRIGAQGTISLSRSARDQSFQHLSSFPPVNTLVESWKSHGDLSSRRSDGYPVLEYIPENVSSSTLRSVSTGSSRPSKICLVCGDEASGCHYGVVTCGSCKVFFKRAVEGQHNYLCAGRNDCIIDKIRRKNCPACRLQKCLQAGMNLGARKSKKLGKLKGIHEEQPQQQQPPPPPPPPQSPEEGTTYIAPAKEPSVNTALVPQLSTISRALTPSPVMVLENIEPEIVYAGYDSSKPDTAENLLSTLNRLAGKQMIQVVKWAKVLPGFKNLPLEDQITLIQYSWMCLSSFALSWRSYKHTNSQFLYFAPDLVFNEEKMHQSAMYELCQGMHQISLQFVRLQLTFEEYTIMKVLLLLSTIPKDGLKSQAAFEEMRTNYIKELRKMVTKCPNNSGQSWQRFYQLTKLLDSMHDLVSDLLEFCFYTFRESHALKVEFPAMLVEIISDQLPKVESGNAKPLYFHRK
Entry rule: numbers only, all in nM.

compound	experimental.system	observed.measurement
C#C[C@]1(O)CC[C@H]2[C@@H]3CCC4=CC(=O)CCC4=C3[C@@H](c3ccc(N(C)C(=O)CC[C@H](NC(=O)CC[C@@H](C)[C@H]4CC[C@H]5[C@@H]6[C@H](O)C[C@@H]7C[C@H](O)CC[C@]7(C)[C@H]6C[C@H](O)[C@]45C)C(=O)O)cc3)C[C@@]21C	Mineralocorticoid receptor (Homo sapiens)	590
Cc1cc(-c2cn(C(C)C)c3cc(NS(C)(=O)=O)ccc23)ccc1C#N	Mineralocorticoid receptor (Homo sapiens)	126
CC1Oc2cc(NS(C)(=O)=O)ccc2N(c2ccc(F)cc2)C1=O (centres undefined)	Mineralocorticoid receptor (Homo sapiens)	160
CS(=O)(=O)Nc1ccc2c(c1)OC1(CCC1)C(=O)N2c1ccc(F)cc1	Mineralocorticoid receptor (Homo sapiens)	152
CNC(=O)C[C@H]1COc2cc(F)c(CC(C)C)cc2N1C(=O)c1ccnc(NC(N)=O)c1	Mineralocorticoid receptor (Homo sapiens)	7.94

For the record `CNC(=O)C[C@H]1COc2cc(Cl)cc(C)c2N1C(=O)c1ccc2c(c1)NC(=O)CO2` , what value of Ki is listed for Mineralocorticoid receptor (Homo sapiens)?
398

For the record `CC/C(=C1\c2ccccc2OCc2cccc(OC)c21)c1cccc(NS(C)(=O)=O)c1` , what value of Ki is listed for Mineralocorticoid receptor (Homo sapiens)?
6.1

For the record COc1cccc2c1-c1ccc3c(c1C(c1cccc(C(F)(F)F)c1)O2)C(C)=CC(C)(C)N3 (centres undefined) , what value of Ki is listed for Mineralocorticoid receptor (Homo sapiens)?
493

For the record `CS(=O)(=O)Nc1cccc2cc[nH]c12` , what value of Ki is listed for Mineralocorticoid receptor (Homo sapiens)?
952

For the record `C[C@@H]1CCc2cc(F)ccc2N1C(=O)c1ccc2c(c1)NC(=O)CO2` , what value of Ki is listed for Mineralocorticoid receptor (Homo sapiens)?
6310

For the record `CCN(c1ccccc1)c1ccc(NS(C)(=O)=O)cc1` , what value of Ki is listed for Mineralocorticoid receptor (Homo sapiens)?
607

For the record C#C[C@]1(O)CC[C@H]2[C@@H]3CCC4=CC(=O)CCC4=C3[C@@H](c3ccc(N(C)CCOC4CC[C@@]5(C)[C@@H](C4)C[C@@H](O)[C@@H]4[C@@H]5C[C@H](O)[C@]5(C)[C@@H]([C@H](C)CCC(=O)O)CC[C@@H]45)cc3)C[C@@]21C (stereo in doubt; form 2) , what value of Ki is listed for Mineralocorticoid receptor (Homo sapiens)?
440

For the record `O=c1[nH]c2cc(/C=C3\c4ccccc4COc4cc(F)ccc43)ccc2n1[C@H]1C[C@H]2COCCN2C1` , what value of Ki is listed for Mineralocorticoid receptor (Homo sapiens)?
0.4

For the record `CNC(=O)C[C@H]1COc2cc(C#N)ccc2N1C(=O)c1ccc2c(c1)NC(=O)CO2` , what value of Ki is listed for Mineralocorticoid receptor (Homo sapiens)?
1000

For the record `COc1cc(F)ccc1-c1c(C)[nH]c2c(NS(C)(=O)=O)cc(F)cc12` , what value of Ki is listed for Mineralocorticoid receptor (Homo sapiens)?
44.7
